Origin of measurements: patent US10766864B2

molecular target: mu opioid receptor (MOR) (Homo sapiens (Human)); experiment: Competitive radioligand binding at MOR ([3H] Naloxone); details: membranes from CHO-K1 cells expressing MOR; 2 nM [3H] Naloxone; reflects free base activity; read-out: MOR IC50
pIC50: −log10 of the molar value.
metric-name: pIC50

Recorded results for 10 compounds are shown here.
{"columns": ["smiles-text", "pIC50"],
 "data": [
  ["CN1CC[C@]23CCCC[C@H]2[C@H]1Cc1ccc(-c2ccncc2)cc13", "< 6.00"],
  ["COCCOCCOCCOCCOCCOCC(=O)Nc1ccc2c(c1)[C@@]13CCCC[C@H]1[C@@H](C2)N(C)CC3", "6.00 to 7.00"],
  ["CN1CC[C@]23CCCC[C@H]2[C@H]1Cc1cc2ccc(=O)[nH]c2cc13", "< 6.00"],
  ["COc1ccccc1C(=O)Nc1ccc2c(c1)[C@@]13CCCC[C@H]1[C@@H](C2)N(C)CC3", "< 6.00"],
  ["CN1CC[C@]23CCCC[C@H]2[C@H]1Cc1ccc(N(c2ccccn2)c2ccccn2)cc13", "< 6.00"],
  ["COCCOCCOCCOCCOCCOc1ccc2c(c1)[C@@]13CCCC[C@H]1[C@@H](C2)N(C)CC3", "< 6.00"],
  ["COCCOCCC(=O)Nc1ccc2c(c1)[C@@]13CCCC[C@H]1[C@@H](C2)N(C)CC3", "< 6.00"],
  ["COCCOCCOCCOCCOCCO[C@H]1CC[C@H]2[C@H]3Cc4ccc(O)cc4[C@@]2(CCN3C)C1", "6.00 to 7.00"],
  ["COCCOCCOCCOCCOCCOc1ccc2c(c1)[C@]13CCN(C)[C@H](C2)[C@@H]1CCC(=O)C3", "< 6.00"],
  ["COCCNC(=O)Nc1nc2cc3c(cc2s1)C[C@@H]1[C@@H]2CCCC[C@]32CCN1C", "< 6.00"]
]}

Now, please, on to the next compound.
Determine its reported pIC50: COCCOCCOc1ccc(Nc2ccc3c(c2)[C@@]24CCCC[C@H]2[C@@H](C3)N(C)CC4)cc1
7.00 to 8.00

###

target: NMDA receptor; assay: Competitive radioligand binding at NMDA receptor ([3H] MK801), rat forebrain membranes; conditions: 0.2 nM [3H] MK801, reflects free base activity
metric-name: IC50

{"columns": ["compound", "IC50"],
 "data": [
  ["CN1CC[C@]23CCCC[C@H]2[C@H]1Cc1ccc(Nc2ncccn2)cc13 [Compound 32]", "100 to 1000 nM"],
  ["COCCNC(=O)Nc1nc2cc3c(cc2s1)C[C@@H]1[C@@H]2CCCC[C@]32CCN1C [Compound 72]", "> 10000 nM"],
  ["CN1CC[C@]23CCCC[C@H]2[C@H]1Cc1ccc(Nc2ccncc2)cc13 [Compound 49]", "0.1 to 100 nM"],
  ["COCCOc1ccc2c(c1)[C@]13CCN(C)[C@H](C2)[C@@H]1CCC(=O)C3 [Compound 7]", "> 10000 nM"],
  ["COCCOCCC(=O)Nc1ccc2c(c1)[C@@]13CCCC[C@H]1[C@@H](C2)N(C)CC3 [Compound 79]", "> 10000 nM"]
]}

Answer with the recorded IC50 for the compound listed here: COCCOCCOCCOCCOCCOc1ccc2c(c1)[C@]13CCN(C)[C@H](C2)[C@@H]1CCC(=O)C3 [Compound 8]
> 10000 nM

# return recorded IC50 for entry CN1CC[C@]23CCCC[C@H]2[C@H]1Cc1ccc(Nc2ccncn2)cc13 [Compound 50]
0.1 to 100 nM

Using known records, supply IC50 for COCCOCCN1CC[C@]23CCCC[C@H]2[C@H]1Cc1ccc(Nc2cccnc2)cc13 [Compound 83]
1000 to 10000 nM
